biological target: T1, PILRA Fc (soluble human PILRA) (human, UniProt Q9UKJ1 20-197, limits assumed); test: flow cytometry; blocking of PILRA Fc binding to human CD3+ T cells (Donor 1019)
T1 construct: also called soluble PILRA; not shown: Fc part, detected with anti-human IgG
T1 sequence (Q9UKJ1 20-197 limits assumed): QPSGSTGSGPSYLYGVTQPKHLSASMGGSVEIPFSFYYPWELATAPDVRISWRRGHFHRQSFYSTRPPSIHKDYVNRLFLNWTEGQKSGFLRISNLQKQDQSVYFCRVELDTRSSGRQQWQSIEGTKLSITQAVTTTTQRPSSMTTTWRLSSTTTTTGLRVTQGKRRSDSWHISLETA
Consider the following binders; for each one, report its IC50.
One number for each entry, in µg/mL.

Before answering, review these 2 worked examples.
E20 (antibody, V domains shown, B-cell cloning campaign (mice)) VH: QIQLVQSGPELKKPGETVKISCKASGYTFTTYGMSWVKQAPGKGLKWMGWINTYSGVPTYADDFKGRFAFSLETSASTAYLQINNLKNEDTATYFCARYDGYLDYWGQGTTLTVSS VL: DIVLTQSPASLAVSLGQRATISCKASQSVDYDGDSYMNWYQQKPGQPPKLLIYAASNLESGIPARFSGSGSGTDFTLNIHPVEEEDAATYYCQQSNEDLTFGSGTKLEIK :: 5.1
B1 (antibody, V domains shown, B-cell cloning campaign (mice)) VH: DVKLVESGGGLVKLGGSLKLSCAASGFTFSSYYMSWVRQTPEKRLEWVAAINSNGDRSYYPDTVKGRFTISRDNAKNTLYLQMSSLKSEDTAFYYCASHGNYYGSPWFAYWGQGTLVTVSA VL: ETTVTQSPASLSVATGEKVTIRCKTSTDIDDDMNWYQQKPGEPPKLLISEGNTLRPGVPSRFSSSGYGTDFVFTIENTLSEDVADYYCLQNDHMPLTFGGGTKLEIK :: 2.2

// switching to the query binder
Reported IC50 for D2 (antibody, V domains shown, second hybridoma campaign) VH: QIQLGQSGPELKRPRETVKISCKASGYTFTTYGMSWVKQAPGKGLRWMGWINTHSGVPAYADDFKGRFAFSLETSANTAFLQINNLENEDTATYFCAKDYNWGMDYWGQGTSVIVSS VL: QLVLTQSSSASFSLGASAKLTCTLSSQHSTYTIEWYQQQPLKPPKYVMEVKKDGSHSTGDGIPDRFSGSSSGADRYLSISNIQPEDEAIYICGVGDSIKEQFVYVFGGGTKVTVL was 3.3
